# Test system: HIV-1 Y181C
# PROTOCOL NOTES: microbe, parasite or virus in culture
# Type: cell-based, human immunodeficiency virus type 1 (HIV-1)
# CONDITION NOTES: Human immunodeficiency virus 1, read-out: EC50 Y181C (nM), Y181C mutant
The compounds listed here are annotated with their EC50.

The examples below pair each entry with its known result.
Cc1cc(Cl)cc(C)c1Oc1nc(Nc2ccc(C#N)cc2)nc2[nH]ccc12 [Cpd 11] | 10 to 100 nM
Cc1cc(Cl)cc(C)c1Oc1nc(Nc2ccc(C#N)cc2)nc2ccn(Cc3ccccc3)c12 [Cpd 63] | 10 to 100 nM
Cc1cccc(C)c1Oc1nc(Nc2ccc(C#N)cc2)nc2cc[nH]c12 [Cpd 65] | < 10 nM

**Query** Write down EC50 measured for item Cc1cc(C#N)cc(C)c1Oc1nc(Nc2ccc(C#N)cc2)nc2c(Cl)cn(C)c12 [Cpd 69]
**Result** < 10 nM

**Query** Fill in EC50 for record Cc1cc(C)c(Oc2nc(Nc3ccc(C(=O)O)cc3)nc3[nH]cnc23)c(C)c1 [Cpd 16]
**Result** > 100 nM

* * *

# System: HIV-1 Y188L
# PROTOCOL NOTES: microbe, parasite or virus in culture
# Type: cell-based, human immunodeficiency virus type 1 (HIV-1)
# CONDITION NOTES: Human immunodeficiency virus 1, read-out: EC50 Y188L (nM)
Parameter: EC50. Scope: all listed entries.

Cc1cc(C#N)cc(C)c1Oc1nc(Nc2ccc(C#N)cc2)nc2[nH]ncc12 | < 10 nM
N#Cc1ccc(Nc2nc(Nc3ccc4c(c3)CCC4)c3nc[nH]c3n2)cc1 | > 100 nM
Cc1cc(C)c(Sc2nc(Nc3ccc(C#N)cc3)nc3cc[nH]c23)c(C)c1 | < 10 nM
Cc1cc(C)c(Oc2nc(Nc3ccc(C(N)=O)cc3)nc3[nH]cnc23)c(C)c1 | > 100 nM

Query compound follows.
**Query** Answer with the recorded EC50 for the compound listed here: Cc1cc(Br)cc(C)c1Oc1nc(Nc2ccc(C#N)cc2)nc2[nH]ccc12
**Result** 10 to 100 nM

* * *

# Tested on: HIV-1 Y188L
# PROTOCOL NOTES: microbe, parasite or virus in culture
# Assay type: cell-based, human immunodeficiency virus type 1 (HIV-1)
# CONDITION NOTES: Human immunodeficiency virus 1, read-out: EC50 Y188L (nM)
ASSAY METRIC: EC50

Some solved cases for reference:
Cc1cc(C)c(Oc2nc(Nc3ccc(C4CC4)cc3)nc3[nH]cnc23)c(C)c1 | > 100 nM
Cc1cc(C)c(Oc2nc(Nc3ccc(C#N)cc3)nc3[nH]ccc23)c(C)c1 | 10 to 100 nM
Cc1cc(C)c(Oc2nc(Nc3ccc(C#N)cc3)nc3c(Cl)cn(C)c23)c(C)c1 | 10 to 100 nM
Cc1cc(C)c(Oc2nc(Nc3ccc(F)cc3)nc3[nH]cnc23)c(C)c1 | 10 to 100 nM
Cc1cc(C)c(Oc2nc(Nc3cccc(C(F)(F)F)c3)nc3[nH]cnc23)c(C)c1 | > 100 nM
COC(=O)c1ccc(Nc2nc(Oc3c(C)cc(C)cc3C)c3nc[nH]c3n2)cc1 | > 100 nM
Cc1cc(C)c(Oc2nc(Nc3ccc(C#N)cc3)nc3[nH]ncc23)c(C)c1 | 10 to 100 nM
Cc1cc(C)c(Oc2nc(Nc3ccc(C(F)(F)F)cc3)nc3[nH]cnc23)c(C)c1 | > 100 nM

**Query** Given the compound Cc1cc(C)c(Oc2nc(Nc3ccc(C#N)cc3)nc3cc[nH]c23)c(C)c1 , write its reported EC50.
**Result** < 10 nM

* * *

# Test system: HIV-1 Y181C
# PROTOCOL NOTES: microbe, parasite or virus in culture
# Assay type: cell-based, human immunodeficiency virus type 1 (HIV-1)
# CONDITION NOTES: Human immunodeficiency virus 1, read-out: EC50 Y181C (nM), Y181C mutant
The entries below come with measured EC50 values attached.

**Query** Read the entry Cc1cc(C)c(Oc2nc(Nc3ccc(C#N)cc3)nc3ccn(C)c23)c(C)c1 and write its reported EC50.
**Result** < 10 nM

**Query** Read off the recorded EC50 for Cc1cc(C)c(Oc2nc(Nc3ccc(S(N)(=O)=O)cc3)nc3[nH]cnc23)c(C)c1
**Result** > 100 nM

**Query** For Cc1cc(C#N)cc(C)c1Oc1nc(Nc2ccc(C#N)cc2)nc2[nH]ccc12 , write its EC50.
**Result** < 10 nM

**Query** Write down EC50 measured for item Cc1cc(C)c(Nc2nc(Nc3ccc(C#N)cc3)nc3[nH]ccc23)c(C)c1
**Result** 10 to 100 nM

**Query** Assign EC50 to the following record: Cc1ccc(Oc2nc(Nc3ccc(C#N)cc3)nc3[nH]ccc23)c(C)c1
**Result** > 100 nM

**Query** Recall and state the measured EC50 for Cc1cc(C)c(Oc2nc(Nc3ccc(C(F)(F)F)cc3)nc3[nH]cnc23)c(C)c1 .
**Result** > 100 nM

* * *

# System: HIV-1 L1001-K103N
# PROTOCOL NOTES: microbe, parasite or virus in culture
# Assay type: cell-based, human immunodeficiency virus type 1 (HIV-1)
# CONDITION NOTES: Human immunodeficiency virus 1, read-out: EC50 L1001-K103N (nM), L1001-K103N mutant
ASSAY METRIC: EC50

Worked examples, 5 compounds total:
Cc1cc(C)c(Oc2nc(Nc3ccc(C#N)cc3)nc3[nH]ccc23)c(C)c1 | 10 to 100 nM
Cc1cc(Br)cc(Cl)c1Oc1nc(Nc2ccc(C#N)cc2)nc2[nH]ccc12 | 10 to 100 nM
Cc1cc(C)c(Oc2nc(Nc3ccc(C#N)cc3)nc3c2ncn3C)c(C)c1 | 10 to 100 nM
Cc1ccc2cccc(Nc3nc(Nc4ccc(C#N)cc4)nc4[nH]cnc34)c2n1 | > 100 nM
COC(=O)c1ccc(Nc2nc(Oc3c(C)cc(C)cc3C)c3nc[nH]c3n2)cc1 | > 100 nM

**Query** Jot down EC50 (HIV-1 L1001-K103N) of Cc1cc(C)c(Oc2nc(Nc3ccc(C(N)=O)cc3)nc3[nH]cnc23)c(C)c1 .
**Result** > 100 nM

**Query** Provide EC50, recorded with HIV-1 L1001-K103N, of Cc1cccc(C)c1Oc1nc(Nc2ccc(C#N)cc2)nc2cc[nH]c12
**Result** > 100 nM

**Query** Find EC50 for Cc1cc(C)c(Sc2nc(Nc3ccc(C#N)cc3)nc3c(Br)c[nH]c23)c(C)c1 on HIV-1 L1001-K103N and write it down.
**Result** > 100 nM

* * *

# Test system: HIV-1 L1001-K103N
# PROTOCOL NOTES: microbe, parasite or virus in culture
# Assay type: cell-based, human immunodeficiency virus type 1 (HIV-1)
# CONDITION NOTES: Human immunodeficiency virus 1, read-out: EC50 L1001-K103N (nM), L1001-K103N mutant
ASSAY METRIC: EC50

Cc1cc(C)c(Oc2nc(Nc3ccc(C(F)(F)F)cc3)nc3[nH]cnc23)c(C)c1 | > 100 nM
Cc1cc(C#N)cc(C)c1Oc1nc(Nc2ccc(C#N)cc2)nc2[nH]cnc12 | 10 to 100 nM
Cc1cc(C)c(Sc2nc(Nc3ccc(C#N)cc3)nc3c(Cl)c[nH]c23)c(C)c1 | > 100 nM
Cc1cc(C2CC2)cc(C)c1Oc1nc(Nc2ccc(C#N)cc2)nc2ccn(Cc3ccccc3)c12 | > 100 nM
Cc1cc(C2CC2)cc(C)c1Nc1nc(Nc2ccc(C#N)cc2)nc2[nH]cnc12 | 10 to 100 nM
Cc1cc(C)c(Oc2nc(Nc3ccc(C#N)cc3)nc3ccn(C)c23)c(C)c1 | < 10 nM

**Query** Give the reported value of EC50 for this record: Cc1cc(C)c(Oc2nc(Nc3ccc(C4CC4)cc3)nc3[nH]cnc23)c(C)c1
**Result** > 100 nM

**Query** Kindly indicate its recorded EC50. Item: Cc1cc(C)c(Oc2nc(Nc3ccc(C#N)cc3)nc3[nH]ncc23)c(C)c1
**Result** 10 to 100 nM

**Query** Quick one: give measured EC50 for Cc1cc(C#N)cc(C)c1Oc1nc(Nc2ccc(C#N)cc2)nc2c(Cl)cn(C)c12
**Result** < 10 nM

* * *

# System: HIV-1 Y188L
# PROTOCOL NOTES: microbe, parasite or virus in culture
# Format: cell-based, human immunodeficiency virus type 1 (HIV-1)
# CONDITION NOTES: Human immunodeficiency virus 1, read-out: EC50 Y188L (nM)
ASSAY METRIC: EC50

**Query** Let me know recorded EC50 for Cc1cc(C)c(Sc2nc(Nc3ccc(C#N)cc3)nc3c(Cl)cn(Cc4ccccc4)c23)c(C)c1 , thanks.
**Result** 10 to 100 nM

**Query** Return EC50 for the following compound: Cc1cc(C)c(Oc2nc(Nc3ccc(C#N)cc3)nc3[nH]cc(Cl)c23)c(C)c1
**Result** > 100 nM

**Query** Consider the compound Cc1cc(Cl)cc(C)c1Oc1nc(Nc2ccc(C#N)cc2)nc2ccn(Cc3ccccc3)c12 . State its measured EC50.
**Result** > 100 nM

**Query** State, in one line, measured EC50 of Cc1cc(C#N)cc(C)c1Oc1nc(Nc2ccc(C#N)cc2)nc2cc[nH]c12
**Result** < 10 nM

**Query** Look up EC50 of Cc1cc(C)c(Sc2nc(Nc3ccc(C#N)cc3)nc3ccn(Cc4ccccc4)c23)c(C)c1 and report it.
**Result** > 100 nM

// provenance: patent US8227601B2
